ASSAY SUMMARY: NCI Yeast Anticancer Drug Screen. Data for the rad14 strain (AID 159);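 further: 0% = growth of vehicle-treated control cultures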
CONDITION LABEL: S. cerevisiae rad14 strain growth inhibition; at 3.7 µM; active compounds read high
The panel holds about 79,000 compounds, 15% with a hit somewhere; the sample as a whole holds those more often. The source made the active and inactive calls. No stated cut-off is given here; in the data, active means growth inhibition above about 70%; inactive means the rest.
Below is a list of entries, each paired with its recorded growth inhibition value.
MEASURED PARAMETER: growth inhibition

>>> obs_value("CCCCCCCC1(N=[N+]=[N-])C(=O)c2ccccc2N(C)C1=O (centres undefined)")
"-20% (inactive)"
>>> obs_value("Cc1ccc(CSC(N)=Nc2ccccc2)cc1C")
"-14% (inactive)"
>>> obs_value("O=C1OC(=O)C2CCCC3CCCC1C32 (centres undefined)")
"28% (inactive)"
>>> obs_value("O=[N+]([O-])CC(SCc1ccccc1)c1ccc2c(c1)OCO2 (centres undefined)")
"36% (inactive)"

The measurements presented in this section are drawn from PubChem BioAssay (NCI).
